# system_under_test: CDK4/cyclin D3 (Homo sapiens, UniProt P11802)
# Construct: made in house; host or cells: insect cells (baculovirus co-infection)
# Sequence (P11802 whole entry): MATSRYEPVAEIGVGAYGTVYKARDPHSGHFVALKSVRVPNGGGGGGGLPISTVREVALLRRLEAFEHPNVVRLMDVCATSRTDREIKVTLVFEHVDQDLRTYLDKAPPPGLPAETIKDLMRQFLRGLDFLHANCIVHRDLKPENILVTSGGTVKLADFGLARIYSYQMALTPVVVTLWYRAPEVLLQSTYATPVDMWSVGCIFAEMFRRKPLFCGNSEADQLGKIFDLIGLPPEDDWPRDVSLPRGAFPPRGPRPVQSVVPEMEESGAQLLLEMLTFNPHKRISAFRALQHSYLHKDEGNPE
# Sequence (P30281 1-264 partner limits assumed): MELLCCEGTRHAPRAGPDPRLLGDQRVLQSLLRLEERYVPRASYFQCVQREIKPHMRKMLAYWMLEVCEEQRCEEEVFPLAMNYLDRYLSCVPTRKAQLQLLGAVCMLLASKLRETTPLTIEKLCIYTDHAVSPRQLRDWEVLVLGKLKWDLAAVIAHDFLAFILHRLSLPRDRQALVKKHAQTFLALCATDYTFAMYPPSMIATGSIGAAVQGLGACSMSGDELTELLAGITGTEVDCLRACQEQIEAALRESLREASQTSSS
# protocol_description: Inhibition of CDK4/Cyclin D retinoblastoma kinase activity;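 as to % Inhib CDK4/D @ 1 μM: relative to DMSO control wells without compound minus no-enzyme background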
# Type: biochemical
# assay_setup: test compound at 1 μM (head line shifted: 'mM' printed beside 'Structure'); read-out: % Inhib CDK4/D @ 1 μM
Each entry below carries its recorded inhibition at 1 µM.
Dear colleague, please return just the value in %, with no unit written.

Would you please look over these solved cases?
[
  {
    "compound": "CN1CCCC1CCSc1cccc(Nc2nc(N)c(C(=O)c3c(Cl)cccc3Cl)s2)c1 (stereo not shown)",
    "reading_unit": "%",
    "inhibition at 1 µM": 57.4
  },
  {
    "compound": "NC(=O)CCSc1cccc(Nc2nc(N)c(C(=O)c3c(Cl)cccc3Cl)s2)c1",
    "reading_unit": "%",
    "inhibition at 1 µM": 77.4
  }
]

What inhibition at 1 µM appears in the records for this compound with CDK4/cyclin D3 (Homo sapiens, UniProt P11802)? Cc1noc(C)c1CSc1ccc(Nc2nc(N)c(C(=O)c3c(Cl)cccc3Cl)s2)cc1
74

What inhibition at 1 µM appears in the records for this compound with CDK4/cyclin D3 (Homo sapiens, UniProt P11802)? Nc1nc(Nc2cccc(SCCN3CCOCC3)c2)sc1C(=O)c1c(Cl)cccc1Cl
62.3

What inhibition at 1 µM appears in the records for this compound with CDK4/cyclin D3 (Homo sapiens, UniProt P11802)? Nc1nc(Nc2cccc(SCCCO)c2)sc1C(=O)c1c(Cl)cccc1Cl
79.6

What inhibition at 1 µM appears in the records for this compound with CDK4/cyclin D3 (Homo sapiens, UniProt P11802)? CN(C)CCSc1cccc(Nc2nc(N)c(C(=O)c3c(Cl)cccc3Cl)s2)c1
69

What inhibition at 1 µM appears in the records for this compound with CDK4/cyclin D3 (Homo sapiens, UniProt P11802)? CN1CCCC(CSc2ccc(Nc3nc(N)c(C(=O)c4c(Cl)cccc4Cl)s3)cc2)C1 (stereo not shown)
58.7

What inhibition at 1 µM appears in the records for this compound with CDK4/cyclin D3 (Homo sapiens, UniProt P11802)? CN(C)CCSc1ccc(Nc2nc(N)c(C(=O)c3c(Cl)cccc3Cl)s2)cc1
61.3

What inhibition at 1 µM appears in the records for this compound with CDK4/cyclin D3 (Homo sapiens, UniProt P11802)? CC(C)(CO)C[S+]([O-])c1cccc(Nc2nc(N)c(C(=O)c3c(Cl)cccc3Cl)s2)c1 (stereo not shown)
49

What inhibition at 1 µM appears in the records for this compound with CDK4/cyclin D3 (Homo sapiens, UniProt P11802)? Nc1nc(Nc2ccc(SCCN3CCOCC3)cc2)sc1C(=O)c1c(Cl)cccc1Cl
68.4

###

# Tested on: HCT-116 cells
# protocol_description: Inhibition of cell growth (MTT tetrazolium salt assay)
# Type: cell-based
# assay_setup: Homo sapiens, read-out: HCT116 IC90
Each entry below carries its recorded IC90.
Dear colleague, please return just the value in nM, with no unit written.

Would you please look over these solved cases?
[
  {
    "mol": "CCN(CC)CCCCNS(=O)(=O)c1ccc(Nc2nc(N)c(C(=O)c3c(F)cccc3F)s2)cc1",
    "reading_unit": "nM",
    "val": 3300
  },
  {
    "mol": "CCN(CC)CCCNS(=O)(=O)c1ccc(Nc2nc(N)c(C(=O)c3c(F)cccc3F)s2)cc1",
    "reading_unit": "nM",
    "val": 3000
  },
  {
    "mol": "COCCNS(=O)(=O)c1ccc(Nc2nc(N)c(C(=O)c3c(F)cccc3F)s2)cc1",
    "reading_unit": "nM",
    "val": 720
  },
  {
    "mol": "Nc1nc(Nc2ccc(S(=O)(=O)NCCc3ccccn3)cc2)sc1C(=O)c1c(F)cccc1F",
    "reading_unit": "nM",
    "val": 2600
  }
]

// IC90 lookup, key: Nc1nc(Nc2ccc(S(=O)(=O)NCCCCO)cc2)sc1C(=O)c1c(F)cccc1F
3000

###

# system_under_test: CDK4/cyclin D3 (Homo sapiens, UniProt P11802)
# Construct: made in house; host or cells: insect cells (baculovirus co-infection)
# protocol_description: Inhibition of CDK4/Cyclin D retinoblastoma kinase activity
# Assay type: biochemical
# assay_setup: test compound at 0.1 μM; read-out: % Inhib CDK4/D @ 0.1 μM
Each entry below carries its recorded inhibition at 0.1 µM.
Dear colleague, please return just the value in %, with no unit written.

Would you please look over these solved cases?
[
  {
    "compound": "CC(C)(CO)CSc1ccc(Nc2nc(N)c(C(=O)c3c(Cl)cccc3Cl)s2)cc1",
    "system_under_test": "CDK4/cyclin D3 (Homo sapiens, UniProt P11802)",
    "val": 23
  },
  {
    "compound": "COC(=O)CS(=O)(=O)c1ccc(Nc2nc(N)c(C(=O)c3c(Cl)cccc3Cl)s2)cc1",
    "system_under_test": "CDK4/cyclin D3 (Homo sapiens, UniProt P11802)",
    "val": 26
  },
  {
    "compound": "CN(C)CCSc1cccc(Nc2nc(N)c(C(=O)c3c(Cl)cccc3Cl)s2)c1",
    "system_under_test": "CDK4/cyclin D3 (Homo sapiens, UniProt P11802)",
    "val": 25
  }
]

Switching to the query record.
What inhibition at 0.1 µM appears in the records for this compound with CDK4/cyclin D3 (Homo sapiens, UniProt P11802)? CC(CN(C)C)C[S+]([O-])c1ccc(Nc2nc(N)c(C(=O)c3c(Cl)cccc3Cl)s2)cc1 (stereo not shown)
31

###

# system_under_test: CDK4/cyclin D3 (Homo sapiens)
# Construct: made in house; host or cells: insect cells (baculovirus co-infection)
# protocol_description: Inhibition of CDK4/Cyclin D retinoblastoma kinase activity
# Type: biochemical
# assay_setup: test compound at 0.03 (unit cell empty, head line shifted; μM); read-out: % Inhib CDK4/D @ 0.03
measured_property: inhibition at 0.03 µM (%)
Dear colleague, please return just the value in %, with no unit written.

Would you please look over these solved cases?
[
  {
    "compound": "CC(C)CCC[S+]([O-])c1cccc(Nc2nc(N)c(C(=O)c3c(Cl)cccc3Cl)s2)c1 (stereo not drawn) [DD(150)]",
    "reading_unit": "%",
    "inhibition at 0.03 µM": 5.6
  },
  {
    "compound": "CC(C)OC(=O)CSc1ccc(Nc2nc(N)c(C(=O)c3c(Cl)cccc3Cl)s2)cc1 [DD(23)]",
    "reading_unit": "%",
    "inhibition at 0.03 µM": 19
  }
]

// inhibition at 0.03 µM lookup, key: CN(C)CC[S+]([O-])c1cccc(Nc2nc(N)c(C(=O)c3c(Cl)cccc3Cl)s2)c1 (stereo not drawn) [DD(152)]
21

// inhibition at 0.03 µM lookup, key: CCN(CC)C(=O)C[S+]([O-])c1ccc(Nc2nc(N)c(C(=O)c3c(Cl)cccc3Cl)s2)cc1 (stereo not drawn) [DD(81)]
-21

// inhibition at 0.03 µM lookup, key: CN(C)CCCS(=O)(=O)c1ccc(Nc2nc(N)c(C(=O)c3c(Cl)cccc3Cl)s2)cc1 [DD(170)]
22

// inhibition at 0.03 µM lookup, key: CN(C)CCS(=O)(=O)c1ccc(Nc2nc(N)c(C(=O)c3c(Cl)cccc3Cl)s2)cc1 [DD(232)]
3.7

// inhibition at 0.03 µM lookup, key: CC(=O)OCCSc1ccc(Nc2nc(N)c(C(=O)c3c(Cl)cccc3Cl)s2)cc1 [DD(37)]
13

// inhibition at 0.03 µM lookup, key: CCOCC[S+]([O-])c1cccc(Nc2nc(N)c(C(=O)c3c(Cl)cccc3Cl)s2)c1 (stereo not drawn) [DD(153)]
15

// inhibition at 0.03 µM lookup, key: CCOCCSc1ccc(Nc2nc(N)c(C(=O)c3c(Cl)cccc3Cl)s2)cc1 [DD(33)]
8.1

###

Each entry below carries its recorded inhibition at 0.03 µM.
# system_under_test: CDK4/cyclin D3 (Homo sapiens, UniProt P11802)
# Construct: made in house; host or cells: insect cells (baculovirus co-infection)
# protocol_description: Inhibition of CDK4/Cyclin D retinoblastoma kinase activity
# Assay type: biochemical
# assay_setup: test compound at 0.03 (unit cell empty, head line shifted; μM); read-out: % Inhib CDK4/D @ 0.03
# Experimental: Cyclin-dependent kinase activity was measured by quantifying the enzyme-catalyzed, time-dependent incorporation of radioactive phosphate from [^32P]ATP or [^33P]ATP into a protein substrate. […] The phosphorylated substrate was then captured on a nitrocellulose or phosphocellulose membrane using a 96-well filtration manifold, and unincorporated radioactivity was removed by repeated washing with 0.85% phosphoric acid. Radioactivity was quantified by exposing the dried membranes to a phosphorimager. […]
Dear colleague, please return just the value in %, with no unit written.

Would you please look over these solved cases?
[
  {
    "compound": "CC(C)CC[S+]([O-])c1cccc(Nc2nc(N)c(C(=O)c3c(Cl)cccc3Cl)s2)c1 (centres unmarked) [DD(133)]",
    "system_under_test": "CDK4/cyclin D3 (Homo sapiens, UniProt P11802)",
    "inhibition at 0.03 µM [%]": 14
  },
  {
    "compound": "CC(C)OC(=O)CCS(=O)(=O)c1ccc(Nc2nc(N)c(C(=O)c3c(Cl)cccc3Cl)s2)cc1 [DD(198)]",
    "system_under_test": "CDK4/cyclin D3 (Homo sapiens, UniProt P11802)",
    "inhibition at 0.03 µM [%]": -24
  },
  {
    "compound": "Nc1nc(Nc2cccc(SCc3ccncc3)c2)sc1C(=O)c1c(Cl)cccc1Cl [DD(75)]",
    "system_under_test": "CDK4/cyclin D3 (Homo sapiens, UniProt P11802)",
    "inhibition at 0.03 µM [%]": 18
  },
  {
    "compound": "CN(C)CCCSc1cccc(Nc2nc(N)c(C(=O)c3c(Cl)cccc3Cl)s2)c1 [DD(50)]",
    "system_under_test": "CDK4/cyclin D3 (Homo sapiens, UniProt P11802)",
    "inhibition at 0.03 µM [%]": 24
  },
  {
    "compound": "CC(C)CCSc1ccc(Nc2nc(N)c(C(=O)c3c(Cl)cccc3Cl)s2)cc1 [DD(13)]",
    "system_under_test": "CDK4/cyclin D3 (Homo sapiens, UniProt P11802)",
    "inhibition at 0.03 µM [%]": 0.6
  },
  {
    "compound": "CCOCCSc1cccc(Nc2nc(N)c(C(=O)c3c(Cl)cccc3Cl)s2)c1 [DD(73)]",
    "system_under_test": "CDK4/cyclin D3 (Homo sapiens, UniProt P11802)",
    "inhibition at 0.03 µM [%]": 11
  }
]

// inhibition at 0.03 µM lookup, key: Nc1nc(Nc2cccc(SCCN3CCOCC3)c2)sc1C(=O)c1c(Cl)cccc1Cl [DD(79)]
9.1

// inhibition at 0.03 µM lookup, key: Nc1nc(Nc2ccc(SCC(=O)Nc3ccccc3)cc2)sc1C(=O)c1c(Cl)cccc1Cl [DD(15)]
38
